test-protocol: Pharmacokinetic study: plasma levels after oral SZ-A in SD rats (LC-MS/MS, DAS 3.2.8)
Format: in vivo
test-context: both sexes, rat, plasma, oral SZ-A 200 mg/kg, n=8
Consider the following compounds; for each one, report its AUC(0-t).
Respond numerically; units are ng·h/mL and should not be typed.

[Q] Reported AUC(0-t) for OC[C@H]1NCC[C@@H](O)[C@@H]1O [FA, fagomine] : what is it?
[A] 6010

[Q] Reported AUC(0-t) for OC[C@H]1NC[C@@H](O)[C@@H]1O [DAB, 1,4-dideoxy-1,4-imino-D-arabinitol] : what is it?
[A] 7630

[Q] Reported AUC(0-t) for OC[C@H]1NC[C@H](O)[C@@H](O)[C@@H]1O [DNJ, 1-deoxynojirimycin] : what is it?
[A] 38300
